# STUDY_TARGET: HIV-1 integrase wild-type (IN1-288) (HIV-1, UniProt P12497 P12497:1148-1435)
# ASSAY_PROTOCOL: inhibition; 3'-processing (+/-17); strand transfer 24 nM; Table C-2 0.060/0.020 uM
# MEASUREMENT_CONTEXT: intramolecular G4
MEASURED_METRIC: pIC50
Lab note: report pIC50 as minus log10 of the concentration in molar units, number only.

Query: Return the recorded pIC50 value; entry: GGGTGGGTGGGTGGGT (ssDNA, PS at first and last linkages) [T30695]
Reply: 7.37
